Measured values drawn from patent US20190092852A1 for this set.

Tested target: T1, biotinylated human IL-33 (human) (UniProt O95760)
T1 sequence (biotin-labeled with EZ-LINK NHS-PEG4-Biotin, looked up): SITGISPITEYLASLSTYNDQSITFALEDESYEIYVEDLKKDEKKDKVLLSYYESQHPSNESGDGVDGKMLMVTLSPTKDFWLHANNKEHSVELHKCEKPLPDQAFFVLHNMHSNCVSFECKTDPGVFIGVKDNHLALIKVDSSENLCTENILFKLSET
Assay: competitive ELISA, biotin-huIL-33 to coated hST2-Fc
Task for the reader: assign each of the following binders its reported Maximum Blocking.
Numbers only, in %.

Study these solved cases before continuing.
Binder	Maximum Blocking (%)
H4H9663P (antibody, from another filing, IgG4, V domains shown) VH: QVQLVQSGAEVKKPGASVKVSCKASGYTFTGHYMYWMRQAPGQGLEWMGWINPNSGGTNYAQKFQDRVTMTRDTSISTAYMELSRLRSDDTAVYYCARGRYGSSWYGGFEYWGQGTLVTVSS VL: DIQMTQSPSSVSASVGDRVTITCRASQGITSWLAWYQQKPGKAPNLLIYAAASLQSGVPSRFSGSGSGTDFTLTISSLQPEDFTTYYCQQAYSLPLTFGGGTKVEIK	82
H4H9666P (antibody, from another filing, IgG4, V domains shown) VH: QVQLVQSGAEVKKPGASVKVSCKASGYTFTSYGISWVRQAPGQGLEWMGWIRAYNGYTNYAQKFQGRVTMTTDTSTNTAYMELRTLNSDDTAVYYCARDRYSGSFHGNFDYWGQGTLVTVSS VL: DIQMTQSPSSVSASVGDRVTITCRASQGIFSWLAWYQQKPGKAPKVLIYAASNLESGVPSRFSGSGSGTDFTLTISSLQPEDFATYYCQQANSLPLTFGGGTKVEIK	81

Switching to the query record.
Report Maximum Blocking, nothing else, for this binder: H4H9660P (antibody, from another filing, IgG4, V domains shown) VH: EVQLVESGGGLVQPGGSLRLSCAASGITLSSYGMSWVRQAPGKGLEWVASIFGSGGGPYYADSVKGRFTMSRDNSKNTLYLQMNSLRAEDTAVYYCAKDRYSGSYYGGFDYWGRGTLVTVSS VL: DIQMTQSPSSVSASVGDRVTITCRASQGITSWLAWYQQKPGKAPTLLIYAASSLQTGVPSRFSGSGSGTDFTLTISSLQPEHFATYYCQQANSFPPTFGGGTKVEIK
78
